B1: CLINT1 (parent)
chain: VVTSAREHIYDLRSLENYHFVDEH

# Variants of: B1
# Assay Method Text: protein stability index of a GFP-peptide fusion (GPS, HEK-293T) (PSI 1-6); higher = more stable;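 note: lentivirally expressed fusions sorted by FACS into six bins by GFP to DsRed ratio, PSI derived from sequencing read proportions per bin multiplied by bin number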
# Particulars: c terminus: a fixed tail appended
Param threshold (2) applies to protein stability index; output True when value >= threshold, False when value < threshold.

> print(dat)
   mutant.label  label.value
1          H24E         True
2           R6W         True
3           H8V         True
4          Y10G         True
5          S14D         True
6          E16W        False
